# TEST DESCRIPTION: in vitro
# COND: human, hela cells, % viability
Reported viability at 28.5 h, 10 µM values for the following molecules.
Your answer should be a plain number; it is taken to be in %.

Example cases with answers are listed next.
| MOLECULE | ENDPOINT | EXPERIMENTAL RESULT |
| --- | --- | --- |
| O=C(CCNCCc1c[nH]c(=O)[nH]c1=O)Nc1cccc(Cl)c1 | viability at 28.5 h, 10 µM | 86.3 |
| Cc1[nH]c2cc(C(=O)O)ccc2c1CC(=O)O | viability at 28.5 h, 10 µM | 98 |
| O=C1CC(c2ccccc2)CC(=O)C1=CNCc1ccccn1 (stereo not shown) | viability at 28.5 h, 10 µM | 105 |
| COc1ccc(CCNC(=O)N2CCN(CCc3ccccc3)CC2)cc1OC | viability at 28.5 h, 10 µM | 102 |
| CCOC(=O)CC(=O)COc1nc2cc3c(nc2o1)CCCC3 | viability at 28.5 h, 10 µM | 89.8 |
| Cc1cccc(-c2nnc(-c3ccc(NC(=O)CSCc4ccccc4)cc3)o2)c1 | viability at 28.5 h, 10 µM | 109 |

In: Please report viability at 28.5 h, 10 µM for the following molecule: Cc1cc2c(o1)c1cnn(CC(=O)N(C(C)C)C(C)C)c(=O)c1n2C
Out: 83.2

* * *

# Tested on: CTL2-GFP (C. trachomatis L2/434/Bu, GFP-expressing)
# Construct: L2/434/Bu, GFP-expressing
# TEST DESCRIPTION: microbe, parasite or virus in culture
# Parameters: Intracellular C. trachomatis growth in HeLa cells, bulk GFP fluorescence relative to DMSO
# COND: Chlamydia trachomatis, HeLa, 28.5 h; bulk GFP
Reported pIC50 values for the following molecules.
Answer as the number alone; pIC50 is minus log10 of concentration in mol/L.

| MOLECULE | pIC50 |
| --- | --- |
| CCc1cccc(OCC(=O)Nc2ccc(S(=O)(=O)Nc3onc(C)c3C)cc2)c1 [c2v] | 6.33 |

In: Please report pIC50 for the following molecule: Cc1ccc(C(=O)/C=C/Nc2ccc(S(=O)(=O)Nc3onc(C)c3C)cc2)cc1 [c4v]
Out: 5.88

* * *

# TEST DESCRIPTION: in vitro
# COND: human, hela cells, % viability
ENDPOINT: viability at 28.5 h, 10 µM (%)
Your answer should be a plain number; it is taken to be in %.

Example cases with answers are listed next.
| COMPOUND | EXPERIMENTAL RESULT |
| --- | --- |
| Fc1ccc(CCNc2ccc3nncn3n2)cc1 | 88.2 |
| Cc1ccc(C(=O)N2Cc3ccccc3C2)cn1 | 94.9 |
| c1ccc2[nH]c(SCCN3CCOCC3)nc2c1 | 89 |
| CCCC(=O)NC[C@H]1CC[C@H](c2ccnc3cc(C)nn32)CC1 | 102 |

In: Please report viability at 28.5 h, 10 µM for the following compound: CC1CCCN(C(=O)N(C)C)C1 (stereo not drawn)
Out: 118

In: Please report viability at 28.5 h, 10 µM for the following compound: COc1ccc([C@@]23CC[C@@H](NC(=O)Nc4ccon4)C[C@@H]2N(C)CC3)cc1OC [CBK051069T]
Out: 97

In: Please report viability at 28.5 h, 10 µM for the following compound: COc1cc(C)nc(NC(=O)Nc2cccc(Cl)c2)n1
Out: 94.2

In: Please report viability at 28.5 h, 10 µM for the following compound: CN(Cc1cc(Br)cs1)C(=O)CCc1c[nH]c2ccccc12
Out: 108

In: Please report viability at 28.5 h, 10 µM for the following compound: COC(=O)CCN(C)CCC(=O)OC [CBK264539C]
Out: 95.4

In: Please report viability at 28.5 h, 10 µM for the following compound: CCN(CC)C(=O)N1CCC2(CC1)CC(=O)c1ccccc1O2
Out: 105

In: Please report viability at 28.5 h, 10 µM for the following compound: O=C(O)CCC(=O)Nc1ccccc1Sc1ccc(Cl)cc1
Out: 99.4

In: Please report viability at 28.5 h, 10 µM for the following compound: CN1CCN(S(=O)(=O)c2cccc3cccnc23)CC1
Out: 106

In: Please report viability at 28.5 h, 10 µM for the following compound: N=C(N)NCCc1c[nH]c2ccccc12 [CBK024011G]
Out: 107

In: Please report viability at 28.5 h, 10 µM for the following compound: CC1=NN(c2ccccc2F)C(=O)C1
Out: 96.8

In: Please report viability at 28.5 h, 10 µM for the following compound: COC(=O)/C=C/c1cn(C2OC(CO)C(O)C2O)c(=O)[nH]c1=O (stereo not drawn)
Out: 106

In: Please report viability at 28.5 h, 10 µM for the following compound: O=C(c1ccccc1Cl)N1CCN(c2ccc([N+](=O)[O-])c(NCc3cccnc3)c2)CC1
Out: 108

In: Please report viability at 28.5 h, 10 µM for the following compound: CSCCc1[nH]c(SCC(=O)Nc2cccc3ccccc23)nc1C
Out: 91.3

* * *

# TEST DESCRIPTION: in vitro
# COND: human, hela cells, % viability
ENDPOINT: viability at 28.5 h, 10 µM

Example cases with answers are listed next.
| MOLECULE | viability at 28.5 h, 10 µM |
| --- | --- |
| O=C(c1ccc2nc[nH]c2c1)N1Cc2ccccc2C1 | 103% |
| CC(=O)N(CN1C(=O)CCC1=O)C(CC(C)C)C(=O)O (stereo not shown) | 87.7% |
| Cn1cc(CCC(=O)N2CCc3[nH]c4ccc(Cl)cc4c3C2)cn1 | 82% |
| CC(=O)N1C[C@@H](c2cccc(C)c2)[C@@H]2CN(CC3CC3)CC[C@@H]21 | 103% |
| Cc1ccc(Nc2nc(N)nc(CSc3nnc(-c4ccncc4)o3)n2)cc1 | 97.7% |
| O=C(NCCCn1ccnc1)c1ncoc1-c1ccccc1F | 96% |
| O=C(O)C1CCN(S(=O)(=O)c2ccccc2[N+](=O)[O-])CC1 | 98.6% |
| COc1ccccc1N1CCN(C(=O)c2c(Cl)cnn2C)CC1 | 94.3% |
| CC(=O)N1C[C@@H](c2ccsc2)[C@@H]2CN(Cc3ccccc3)CC[C@@H]21 | 109% |
| Cn1ncc2c(SCc3cc4c(cc3Br)OCCO4)ncnc21 | 104% |

In: Please report viability at 28.5 h, 10 µM for the following molecule: COc1ccc(C(C)C)cc1-c1nccnc1NCc1ccc(S(C)(=O)=O)cc1
Out: 92.5%

In: Please report viability at 28.5 h, 10 µM for the following molecule: O=C(NCc1ccc(Cl)cc1)N1CCN(CCc2ccccc2)CC1
Out: 90.7%

* * *

# TEST DESCRIPTION: in vitro
# COND: human, hela cells, % viability
ENDPOINT: viability at 28.5 h, 10 µM (%)
Your answer should be a plain number; it is taken to be in %.

| STRUCTURE NOTATION | viability at 28.5 h, 10 µM [%] |
| --- | --- |
| CN(C)CCN(C)Cc1ccc2c(c1)Cc1ccccc1-2 | 93.3 |
| O=S(=O)(c1ccc(C(F)(F)F)cc1Cl)N1CCN(Cc2cccc3cccnc23)CC1 | 110 |
| O=C(O)c1sc2cc(C(F)(F)F)cnc2c1-c1cccs1 | 114 |
| CC(=O)Nc1ccc(-c2ccc(C(=O)N3CCN(C4CCN(C)CC4)CC3)cn2)cc1 | 96.7 |
| COC(=O)Nc1ncc(CN2CCCCC2)s1 | 111 |
| NC(=O)C1CCN(C2=NC(=O)/C(=C/c3cn(-c4ccccc4)nc3-c3ccc(F)cc3)S2)CC1 | 106 |

In: Please report viability at 28.5 h, 10 µM for the following compound: CCc1nn(C)c2[nH]nc(NC(=O)Cc3csc(C)n3)c12
Out: 91.7

In: Please report viability at 28.5 h, 10 µM for the following compound: O=C1CCN(Cc2ccccc2)CCN1C(=O)c1cccs1
Out: 88.8

In: Please report viability at 28.5 h, 10 µM for the following compound: CCC(C)(C)c1ccc(S(=O)(=O)N2CCCN(Cc3c[nH]c(=O)[nH]c3=O)CC2)cc1
Out: 91.8

* * *

Reported viability at 28.5 h, 10 µM values for the following compounds.
# TEST DESCRIPTION: in vitro
# COND: human, hela cells, % viability
Your answer should be a plain number; it is taken to be in %.

| COMPOUND | viability at 28.5 h, 10 µM [%] |
| --- | --- |
| CC1(C)Cc2nc(N3CCOCC3)ncc2C(NC(=O)NC(C)(C)C)C1 (stereo not drawn) [CBK306978] | 101 |

In: Please report viability at 28.5 h, 10 µM for the following compound: CCn1c(=O)n(CC(=O)N2CC(C)CC(C)C2)c2cccnc21 (stereo not drawn) [CBK283845]
Out: 95.3

In: Please report viability at 28.5 h, 10 µM for the following compound: O=C1CCc2cc(S(=O)(=O)NC(c3ccccc3)c3ccccc3)ccc2N1 [CBK286367]
Out: 93.4

In: Please report viability at 28.5 h, 10 µM for the following compound: CCC(c1cccnc1)N(C)C(=O)c1ccc(=O)n(C)c1 (stereo not drawn) [CBK306802]
Out: 101

In: Please report viability at 28.5 h, 10 µM for the following compound: Cc1ccnc(SCC(=O)N2CCc3ccccc3C2)n1 [CBK288218]
Out: 91.7

In: Please report viability at 28.5 h, 10 µM for the following compound: Cc1cc(C)cc(Nc2c([N+](=O)[O-])nn(-c3cccc(Cl)c3)[n+]2[O-])c1 [CBK268254]
Out: 105

In: Please report viability at 28.5 h, 10 µM for the following compound: O=C(Oc1ccc2c(=O)c(Oc3ccc(-c4ccccc4)cc3)coc2c1)c1cccnc1 [CBK264479]
Out: 97.6

In: Please report viability at 28.5 h, 10 µM for the following compound: CC(C)CC(NC(=O)c1ccccc1)C(=O)OCC(=O)Nc1nc2ccccc2s1 (stereo not drawn) [CBK085134]
Out: 92.5
